target: Torsin-1A (Homo sapiens); assay: TOR1A wild-type binding on microarray – cell lysate, small-molecule microarray, lysate, 635/667 nm, primary screen (AID 1149); settings: COS7 hTOR1A-WT lysate, 635 nm fluorescence, higher = more signal
Parameter class (string): assigned from measured composite z-score. Ranges: low bin (below 0.1), mid bin (0.1 to below 0.7), high bin (0.7 or more)

[
  {
    "COMPOUND": "C#CCN1[C@@H](Cc2ccc(O)cc2)C(=O)O[C@H](Cc2ccccc2)[C@@H]1/C=C/C1CC1",
    "MEASURED ON": "Torsin-1A (Homo sapiens)",
    "CLASS ASSIGNMENT": "mid bin"
  },
  {
    "COMPOUND": "O=C(CS)NCCCCCNC(=O)[C@H]1C[C@H]2C(=O)NCC(=O)N2[C@H]1c1cccc(OCCO)c1",
    "MEASURED ON": "Torsin-1A (Homo sapiens)",
    "CLASS ASSIGNMENT": "low bin"
  },
  {
    "COMPOUND": "COc1ccc([Si](C)(C)[C@@H]2[C@@H](CC(=O)N3Cc4ccccc4C[C@H]3CO)O[C@]3(C(=O)N(Cc4cccc(N5CCC5=O)c4)c4ccccc43)[C@H]2C)cc1",
    "MEASURED ON": "Torsin-1A (Homo sapiens)",
    "CLASS ASSIGNMENT": "mid bin"
  },
  {
    "COMPOUND": "O=C1OCCC=C[C@H]2OC34C=CCN(CCN5CCOCC5)C(=O)[C@H]3N(CCCCCO)C(=O)[C@@H]4C12 (stereo not given in full)",
    "MEASURED ON": "Torsin-1A (Homo sapiens)",
    "CLASS ASSIGNMENT": "high bin"
  },
  {
    "COMPOUND": "COCC(=C=CC[C@H](O)c1cccc(OCCO)c1)C[C@H](O)c1cc(Cl)cc(Cl)c1O",
    "MEASURED ON": "Torsin-1A (Homo sapiens)",
    "CLASS ASSIGNMENT": "high bin"
  },
  {
    "COMPOUND": "CC(C)(C)OC(=O)CC[C@]1(C(N)=O)N=C(c2ccc(OCCCO)cc2)O[C@H]1c1ccccc1",
    "MEASURED ON": "Torsin-1A (Homo sapiens)",
    "CLASS ASSIGNMENT": "low bin"
  },
  {
    "COMPOUND": "C=CC[C@]1(C(N)=O)COC(c2ccc(OCCCO)cc2)=N1",
    "MEASURED ON": "Torsin-1A (Homo sapiens)",
    "CLASS ASSIGNMENT": "high bin"
  },
  {
    "COMPOUND": "[N-]=[N+]=Nc1ccccc1[C@H]1OC(c2ccc(OCCCO)cc2)=N[C@@]1(Cc1ccccc1)C(=O)N1CCOCC1",
    "MEASURED ON": "Torsin-1A (Homo sapiens)",
    "CLASS ASSIGNMENT": "mid bin"
  },
  {
    "COMPOUND": "O=C1NC(=O)C2C1C=CC(C(O)c1ccc(I)cc1)N2Nc1ccccn1 (stereo not given)",
    "MEASURED ON": "Torsin-1A (Homo sapiens)",
    "CLASS ASSIGNMENT": "mid bin"
  },
  {
    "COMPOUND": "COc1ccc(C#Cc2ccc3c(c2)[C@]2(C(=O)N3)[C@H](c3ccc(O)cc3)N3[C@H](c4ccccc4)[C@H](c4ccccc4)OC(=O)[C@H]3[C@@H]2C(=O)N2CCc3cc(OC)c(OC)cc3C2)cc1",
    "MEASURED ON": "Torsin-1A (Homo sapiens)",
    "CLASS ASSIGNMENT": "mid bin"
  },
  {
    "COMPOUND": "O=C(O)[C@H]1C[C@H]2C(=O)N3CCC[C@H]3C(=O)N2[C@H]1c1ccc(O)cc1",
    "MEASURED ON": "Torsin-1A (Homo sapiens)",
    "CLASS ASSIGNMENT": "mid bin"
  },
  {
    "COMPOUND": "COC(=O)[C@@]1(Cc2ccc(OC)cc2)[C@H]2c3cc(C(=O)N4CCCC4)n(CCSCCO)c3C[C@H]2CN1C(=O)c1ccccc1",
    "MEASURED ON": "Torsin-1A (Homo sapiens)",
    "CLASS ASSIGNMENT": "mid bin"
  },
  {
    "COMPOUND": "COC(=O)[C@@]1(Cc2ccc(F)cc2)[C@H]2c3cc(C(=O)N(C)C)n(Cc4ccc(C)o4)c3C[C@H]2CN1C(=O)c1ccccc1",
    "MEASURED ON": "Torsin-1A (Homo sapiens)",
    "CLASS ASSIGNMENT": "high bin"
  },
  {
    "COMPOUND": "COC(=O)[C@@]1(Cc2ccccc2)[C@H]2c3cc(C(=O)N4CCCC4)n(Cc4ccc(O)c(OC)c4)c3C[C@H]2CN1C(=O)c1ccccc1",
    "MEASURED ON": "Torsin-1A (Homo sapiens)",
    "CLASS ASSIGNMENT": "low bin"
  }
]

---

test system: XIP peptide (Xip251-270); assay: compounds binding XIP fragment 251-270 – biochemical, small-molecule microarray, fluorescence 635/667 nm, 0.5 µg/mL protein, primary screen (AID 1183); settings: fluorescence 635 nm, higher = more signal
Measured composite z-score, listed per entry.

[
  {
    "COMPOUND": "Cc1ccc(C2C3C(=O)CC4C(=O)N(c5ccccc5)C(=O)C4C3CN2S(=O)(=O)c2ccc(C)cc2)cc1 (configuration not stated)",
    "composite z-score": 0.785
  },
  {
    "COMPOUND": "O=C1O[C@@H](c2ccccc2)[C@@H](c2ccccc2)N2[C@@H](c3ccccc3OCCO)[C@]3(C(=O)Nc4ccc(C#CC5(O)CCCCCC5)cc43)[C@@H](C(=O)N3CCN(c4ncccn4)CC3)[C@H]12",
    "composite z-score": 0.661
  },
  {
    "COMPOUND": "CC=CC(O)C1C=CC2C(=O)N(C)C(=O)C2N1N(c1ccccc1)c1ccccc1 (configuration not stated)",
    "composite z-score": 0.414
  },
  {
    "COMPOUND": "[N-]=[N+]=NCc1ccccc1[C@@H]1OC(c2ccc(OCCCO)cc2)=N[C@]1(CCS(=O)(=O)c1ccccc1)C(N)=O",
    "composite z-score": 0.869
  },
  {
    "COMPOUND": "CCOC(=O)C1=CC[C@H]2C(=O)N(c3ccccc3)C(=O)[C@@H]12",
    "composite z-score": 0.903
  },
  {
    "COMPOUND": "CCOC(=O)C[C@H]1[C@H](OC(=O)c2ccc(C(=O)c3ccccc3)cc2)[C@@H](NC(=O)Cc2ccc(OC)cc2)c2cc(OCCCO)ccc2N1C(=O)c1ccc2ccccc2n1",
    "composite z-score": 0.172
  },
  {
    "COMPOUND": "[N-]=[N+]=Nc1ccccc1C[C@@]1(C(=O)N2CCCCC2)N=C(c2ccc(OCCCO)cc2)O[C@@H]1c1ccccc1N=[N+]=[N-]",
    "composite z-score": 0.0553
  }
]

---

experiment: COS7 lysate on small-molecule microarray, probe aHis, 635 nm (AID 1123); conditions: COS7 cell lysate, fluorescence, higher = more signal;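 also: z-score combines 667nm fluorescence intensity with signal-to-noise per printed compound spot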
Param threshold (2) applies to composite z-score; output y when value >= threshold, n when value < threshold.

[
  {
    "MOLECULE": "COC(=O)c1c(CC[C@@H](CO)NC(=O)NCCc2c[nH]c3ccccc23)oc(C(=O)Cc2ccccc2)c1C(=O)OC",
    "CLASS ASSIGNMENT": "n"
  },
  {
    "MOLECULE": "COc1ccccc1CN1C(=O)c2ccccc2[C@@H](C(=O)NCc2ccccc2)[C@@H]1c1ccc(CO)cc1",
    "CLASS ASSIGNMENT": "n"
  },
  {
    "MOLECULE": "COCC(=C=CC[C@H](O)c1cccc(OCCO)c1)C[C@H](O)c1cc(Cl)cc(Cl)c1O",
    "CLASS ASSIGNMENT": "n"
  },
  {
    "MOLECULE": "CC(C)N1CC=CC23O[C@@H]4C=CCOC(=O)[C@@H]4[C@H]2C(=O)N(CCCCCO)[C@@H]3C1=O (some centres not stated)",
    "CLASS ASSIGNMENT": "n"
  },
  {
    "MOLECULE": "COC(=O)C(CC#Cc1ccc2c(c1)[C@]1(C(=O)N2)[C@H](c2ccccc2OCCO)N2[C@H](c3ccccc3)[C@H](c3ccccc3)OC(=O)[C@H]2[C@@H]1C(N)=O)C(=O)OC",
    "CLASS ASSIGNMENT": "y"
  },
  {
    "MOLECULE": "COC(=O)[C@@]1(Cc2ccccc2)[C@H]2c3cc(C(=O)N4CCCC4)n(Cc4ccc(O)c(OC)c4)c3C[C@H]2CN1C(=O)c1ccccc1",
    "CLASS ASSIGNMENT": "y"
  },
  {
    "MOLECULE": "CCOC(=O)C[C@H]1[C@H](OC(=O)c2ccc(-c3ccccc3)cc2)[C@@H](NC(=O)c2ccccc2)c2cc(OCCCO)ccc2N1C(=O)Cc1ccc(OC)cc1",
    "CLASS ASSIGNMENT": "n"
  }
]
